- Target Of Assay: T1, human CCR8 (human, UniProt P51685 1-355)
- T1 construct: the cells are named under assay; also called hCCR8
- Assay Text: flow cytometry, hCCR8 transfected CHOK1 cells
- Procedure: Briefly, 1·10⁵ cells per well in a 96 well plate were incubated with a dilution of unconjugated anti-CCR8 mAb at 10 μg/mL then diluted at 1/3.33, 4 dilution points (during 30 min at 4° C.). […] To determine EC50 value, 8 concentrations of anti-CCR8 mAb were tested. […] Bound detection antibody is quantified on a MacsQuant16 (Miltenyi, Gladbach, Germany) (B1 or B2 channel, 5000 events per acquisition).
Please enter True where MFI fold change to isotype ctrl is greater than or equal to 5 fold, and False where it is lower.

// known answers, use as guide
Req: Assess whether reported MFI fold change to isotype ctrl for 3-40 (antibody, V domains shown) VH: QVQLKESGPGLVAPSQSLSITCTVSGLSMNDYVVTWIRQPPGKGLEWLGVIWGGGNTYYNSDLKSRLSITKDNSKSQVFFKMSSLQTDDTAVYYCARRHRDYALDYWGQGISVTVSS VL: ENVLTQSPAIMSASPGEKVTMTCRASSSVSSSYLHWYQQKSGASPKLWIYSTSNLASGVPARFSGSGSGTSYSLTISSVEAEDAATYYCQQYSGYPYTFGGGTKLEIK sits at 5 fold or higher.
Resp: True

Req: Assess whether reported MFI fold change to isotype ctrl for 3-13 (antibody, V domains shown) VH: KVQLQQSGPELVKPGASVKISCKTSGYTFTEYTIHWVQQIHGKSPEWIGGINPNGDTRYDQKFKGKATLTIDKSSSTAYMELRSLTSEDSAVYYCARVARFYGISPYAMDYWGQGTSVTVSS VL: DVVMTQTPLSLPVSLGDQASISCRCTQSLLHSNGDTYLHWYLQKPGQSPNLLIYKVSNRFSGVPDRFSGSGSGTDFTLKINRVEAEDLGVYFCSQSTHVPYTFGGGTNLEIK sits at 5 fold or higher.
Resp: True

Req: Assess whether reported MFI fold change to isotype ctrl for 3-12 (antibody, V domains shown) VH: QVQLQQPGAVLVKPGASVKMSCKASGYTFTSYNMHWLKQTPGQGLEWIGAIAPGKGDTSHNQKFKGKATLTADKSSSTAYMQLSSLTSEDSAVYYCARRNNYEPFVYWGQGTLVTVSA VL: DIVFTQSPASLAVSLGQRATISCRASESVEYYGTSLMQWYQQKPGQPPKLLIYAASNVESGVPARFSGSGSGTDFSLNIHPVEADDIAMYFCQQSRKVPFTFGSGTKLEIK sits at 5 fold or higher.
Resp: True

Others:
Req: Assess whether reported MFI fold change to isotype ctrl for 3-42 (antibody, V domains shown) VH: QVQLKESGPGLVAPSQSLSITCTVSGFSLTDYRVSWIRQPPGKGLEWLGVIWGGRSTYYNSALKSRLSISKDNSKSQVFLKMNSLQTDDTAMYYCAKQGDGYYALDYWGQGTSVTVSS VL: DVVMTQTPLSLPVSLGDQASISCRSSQSLVHSYGNTYLHWYLQKPGQSPKLLIYKVSNRFSGVPDRFHGSGSGTDFTLKISRVEAEDLGVYFCSQSTHVPPTFGGGTKLEIK sits at 5 fold or higher.
Resp: False
